- target or test system: T1, human LIV-1 (human, UniProt Q13433 29-755)
- T1 construct: whole, on cells; also called H-LIV1
- T1 sequence (looked up): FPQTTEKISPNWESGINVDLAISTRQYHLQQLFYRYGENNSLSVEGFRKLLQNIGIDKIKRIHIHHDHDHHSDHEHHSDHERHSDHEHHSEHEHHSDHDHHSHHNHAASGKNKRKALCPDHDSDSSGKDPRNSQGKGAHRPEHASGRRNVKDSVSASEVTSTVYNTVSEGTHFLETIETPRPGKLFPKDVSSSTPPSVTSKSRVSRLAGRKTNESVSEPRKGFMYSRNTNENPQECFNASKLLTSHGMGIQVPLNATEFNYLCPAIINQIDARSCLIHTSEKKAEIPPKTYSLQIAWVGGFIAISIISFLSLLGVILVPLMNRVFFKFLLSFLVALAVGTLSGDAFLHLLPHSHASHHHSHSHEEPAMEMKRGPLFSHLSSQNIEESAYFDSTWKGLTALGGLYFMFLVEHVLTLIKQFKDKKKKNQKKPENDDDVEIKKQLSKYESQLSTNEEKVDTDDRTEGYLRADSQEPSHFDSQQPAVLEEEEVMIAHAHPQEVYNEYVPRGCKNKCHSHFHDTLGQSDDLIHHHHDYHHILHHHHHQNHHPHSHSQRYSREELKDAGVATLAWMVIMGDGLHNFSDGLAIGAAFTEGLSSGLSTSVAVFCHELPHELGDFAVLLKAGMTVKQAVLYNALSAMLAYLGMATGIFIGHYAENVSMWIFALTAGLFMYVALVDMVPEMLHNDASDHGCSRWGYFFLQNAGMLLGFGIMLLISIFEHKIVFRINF
- test name: FACS, HEK293/H_LIV-1 cells
observed property: pEC50
Hey, just a heads up that pEC50 is the negative log base 10 of the concentration in molar.

Example results:
binder	recorded value
94C4B9 (antibody, V domains shown, Tested as chimeric antibody) VH: EVQLQQSGTVLARPGASVKMSCKASGYTFINYWMHWVKQRPGQGLEWIGAFYPGNSDTSYNQKFKDKAKLTAVTSTSTAYMEFSSLTNEDSAVYYCTRDFTAVPYFDYWGQGTTLTVSS VL: DILMTQTPLSLPVSLGDQASISCRSSQSIVHSNGNTYLEWYLQKPGQSPKLLIYKVSNRFSGVPDRFSGSGSGTDFTLKISRVEAEDLGVYYCFQGSYVPLTFGVGTKLELK	9.66
108H1D4 (antibody, V domains shown, Tested as chimeric antibody) VH: EVKLVESGGDLVQPGGSRKLSCAASGFTFSDYGMAWFRQAPGKGPEWVAFISNLAYNIYYADTVTGRFTISRENARNTLYLEMSSLRSEDTAMYYCAREGGITTVPATDYFDYWGQGTTLTVSS VL: DIQMTQTTSSLSASLGDRVTFSCRASQDIRNYLNWYQQKPDGTVKLLIYYTSRLHSGVPSRFSGSGSGTDYSLTINNLEQEDLATYFCQQVNALPLTFGAGTKLELK	9.05
5D6B10 (antibody, V domains shown, Tested as chimeric antibody) VH: QVQLKQSGPGLVQPSQSLSITCTVSGFSLTTYGIHWVRQSPGKGLEWLGVIWTGGTTDYNAAFISRLSISKDNSKSQVFFKMNSLQANDTAIYYCARGPSSYWGQGTLVTVSA VL: DIVMTQSQKFMSTSVGDRVSVTCKASQNVDTNVVWYQQKPGQSPKALIHSASYRYSGVPDRFTGSGSGTDFTLTISNVQSEDLAEYFCQQYNNYPWTFGGGTKLEIK	9.68
69B3D6 (antibody, V domains shown, Tested as chimeric antibody) VH: QVQLQQSGPELVKPGASVRISCKASGYTFTSYHMHWVKQRPGQGLEWIGWIYPGNVKNQSNEKFKGKATLTADKSSSTAYMQLSSLTSEDSAVYFCARSDITRAFFAYWGQGTLVTVSA VL: DVLMTQTPLSLPVSLGDQASISCRSSQSIVHSNGNTYLEWYLQKPGQSPKLLIYKVSNRFSGVPDRFSGSGSGTDFTLKISRVEAEDLGVYYCFQGSHVPYTFGGGTKLEIK	9.74
248H1G3 (antibody, V domains shown, Tested as chimeric antibody) VH: EVQLQQSGPELMKRGASVKISCKTSTFTFTEFTIHWVKQSHGKSLEWIGGINPNTGGTSYNQNFTGKATLTVDKSSITAYMELRSLTSEDSAIYYCAPNWDGYWFFDVWGAGTTVTVSS VL: DIQMTQSPASLSASVGETVTITCRASGNIQNYLAWYQQKQGKSPQLLVYGAKTLADGVPSRFSGSGSGTQFSLKINSLQPEDFGSYYCQHFWSPPLTFGAGTKLELK	9.05

IN: Give pEC50 for 50H12B3 (antibody, V domains shown, Tested as chimeric antibody) VH: QVQLKQSGPGLVQPSQSLSITCTVSGFSLTSYGVHWVRQSPGKGLEWLGVIWTGGTTDYNAAFKSRLSISKDNSKSQVFFKMNSLQANDTAIYYCARGPSSYWGQGTLVTVSA VL: DIVMTQSQKFMSTSVGDRVSVTCKASQNVDTNVVWYQQKPGQSPKALIHSTSYRYSGVPDRFTGSGSGTDFTLTISNVQSEDLAEYFCQQYNNYPWTFGGGTKLEIK
OUT: 9.64

Reference source for all entries: patent US20240325555A1
